Target: UniProt P54750
Sequence (P54750 whole entry): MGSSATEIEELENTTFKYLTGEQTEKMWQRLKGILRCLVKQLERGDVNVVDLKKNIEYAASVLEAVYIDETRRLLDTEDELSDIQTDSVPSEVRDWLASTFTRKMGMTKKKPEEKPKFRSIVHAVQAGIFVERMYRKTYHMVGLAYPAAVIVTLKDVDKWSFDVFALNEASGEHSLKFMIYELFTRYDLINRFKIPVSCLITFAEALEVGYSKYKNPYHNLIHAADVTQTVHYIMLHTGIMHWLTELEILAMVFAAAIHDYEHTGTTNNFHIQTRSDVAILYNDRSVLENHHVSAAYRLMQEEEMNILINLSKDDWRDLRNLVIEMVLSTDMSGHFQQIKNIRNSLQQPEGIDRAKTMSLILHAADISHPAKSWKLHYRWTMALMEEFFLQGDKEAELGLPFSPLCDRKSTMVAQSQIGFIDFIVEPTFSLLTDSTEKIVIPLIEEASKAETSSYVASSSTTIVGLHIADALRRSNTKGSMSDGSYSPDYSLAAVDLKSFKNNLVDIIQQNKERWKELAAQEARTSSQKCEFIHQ
measureName: IC50 (µM)
Give your result in µM as a bare value.

Can you look up the measured IC50 of CC1OCCC1c1ncc2c(=O)n(C)c(Cc3ccc(-c4cccc(F)n4)cc3)cn12 (single isomer, unassigned; isomer 2) [Example 30] for me?
0.07

Endpoint output: IC50 of CC1OCCC1c1ncc2c(=O)n(C)c(Cc3ccc(-c4cccc(F)n4)cc3)cn12 (single isomer, unassigned; isomer 4) [Example 32] . Value?
0.0058

Recorded IC50 for Cn1c(Cc2ccc(-c3cnccn3)cc2)cn2c(C3CCOCC3)ncc2c1=O [Example 24] , please?
0.091

Consider the compound COc1ccc(Cn2c(CN3CCN(c4ccccc4)CC3)cn3c(C4CCOCC4)ncc3c2=O)cc1 [Example 8] and give its measured IC50.
0.059

Item Cn1c(Cc2ccc(-c3cccc(F)n3)cc2)cn2c(C3CCOCC3)ncc2c1=O [Example 14] has what recorded IC50?
0.062

Requested read-out: IC50. Entry: CCn1c(Cc2ccc(-c3ccccn3)cc2)cn2c(C3CCOCC3)ncc2c1=O [Example 12]
0.012

If you can, please state the reported IC50 value of CCc1ncc2c(=O)n(C)c(Cc3ccc(-c4cccc(F)n4)cc3)cn12 [Example 23] .
0.176

Find the recorded IC50 belonging to Cn1c(Cc2ccc(-c3ccccn3)cc2)cn2c(C3CCOCC3)ncc2c1=O [Example 11] and report it.
0.03
